experiment: STAT1 reporter inhibitors, IFN-gamma induced, confirmation, counter-screen for STAT3 inhibitor project, cell-based, NIH 3T3, luciferase luminescence (AID 1317); details: NIH 3T3 STAT1-luciferase reporter, at 5.7 µM, active compounds read high;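 further: 0% = DMSO with IFN-gamma and 100% = nifuroxazide control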
The list shows a part of the results.
Recorded inhibition, one value per entry.
# output: bare number, implied unit %

Example entries begin here.
Cc1ccc2nc(-c3ccc(NC(=O)c4cccnc4)cc3)oc2c1	-38.3
CCCCCc1ccc(-c2ccc(C(=O)O)cc2)nc1	-71.4
CCOc1ccc(-c2nnc(-c3ccco3)o2)cc1	-56.6
COc1ccc(Cn2c(=O)sc3ccccc32)cc1OC	13.3
COc1cc(SC)ccc1C(=O)Nc1cc(C)ccn1	-139
Cc1nc(-c2ccc(NC(=O)c3cccs3)cc2)cs1	-111
COc1ccc(S(=O)(=O)Nc2ccc3oc(C)c(C(C)=O)c3c2)cc1	20.4
N#Cc1nc(COc2ccc(-c3ccccc3)cc2)oc1NCc1cccnc1	12.9
c1ccc2[nH]c(-c3nc4ccccc4[nH]3)nc2c1	-97.2
CCSc1nnc(NC(=O)c2ccc(C)cc2)s1	-63

Q: I have this molecule here, `COc1ccccc1Oc1ccc(S(=O)(=O)Nc2cccnc2)cc1` , and I need its recorded inhibition.
Result: 8.77

Q: Request: `Cc1nc2ccccc2cc1OCc1ccc(F)cc1`
Result: 5.63
